Target: UniProt P04150
Experiment: GR functional assay using SW1353/MMTV-5 cells (dexamethasone-induced luciferase)
Assay type: cell-based
Set-up: contains endogenous glucocorticoid receptors; endogenous in cells; host or cells: SW1353/MMTV-5 (human chondrosarcoma, stably carrying the pMAMneo-Luc reporter)
pKi: −log10 of the molar value.
property: pKi

Q: Given Fc1ccc(CC23Cc4cnn(-c5ccc(F)cc5)c4C=C2CCN(Cc2cccnc2)C3)cc1 (centres unmarked) , respond with its pKi.
Ans: < 7.00

Q: Given "O=S(=O)(c1ccccc1)N1CCC2=Cc3c(cnn3-c3ccc(F)cc3)C[C@]2(CN2CCCCC2)C1" , respond with its pKi.
Ans: 7.00 to 8.00

Q: Given O=S(=O)(N1CCOCC1)N1CCC2=Cc3c(cnn3-c3ccc(F)cc3)CC2(Cc2ccc(F)cc2)C1 (centres unmarked) , respond with its pKi.
Ans: < 7.00

Q: Given "CC(C)(C)c1ccc(S(=O)(=O)N2CCC3=Cc4c(cnn4-c4ccc(F)cc4)C[C@]3(CN3CCC3)C2)cc1" , respond with its pKi.
Ans: 7.00 to 8.00

Q: Given CC(C)(C)c1ccc(S(=O)(=O)N2CCC3=Cc4c(cnn4-c4ccc(F)cc4)CC3(Cc3ccc(F)cc3)C2)cc1 (centres unmarked) , respond with its pKi.
Ans: 7.00 to 8.00

---

Target: glucocorticoid receptors (Homo sapiens)
Experiment: Glucocorticoid receptor binding displacement assay with 3H-dexamethasone
Set-up: This GR was a full-length steroid hormone receptor; host or cells: recombinant baculovirus-infected insect cells
Conditions: Ki from IC50 by Cheng-Prusoff; 2.5 nM 3H-dexamethasone; read-out: GR Binding
Field: Ki. Provide a value for each of the molecules that follow.

Q: Given "COCCOC[C@]12Cc3cnn(C(C)C)c3C=C1CCN(S(=O)(=O)c1ccc(C(C)(C)C)cc1)C2" , respond with its Ki.
Ans: < 10 nM

Q: Given "CC(C)(C)c1ccc(S(=O)(=O)N2CCC3=Cc4c(cnn4-c4ccc(F)cc4)C[C@]3(CCO)C2)cc1" , respond with its Ki.
Ans: < 10 nM

Q: Given "C=CCNC[C@]12Cc3cnn(-c4ccc(F)cc4)c3C=C1CCN(S(=O)(=O)c1ccc(C(C)(C)C)cc1)C2" , respond with its Ki.
Ans: < 10 nM

Q: Given "CC(C)n1ncc2c1C=C1CCN(S(=O)(=O)c3ccc(C(C)(C)C)cc3)C[C@@]1(CN(C)C)C2" , respond with its Ki.
Ans: 10 to 100 nM

Q: Given CC(C)(C)c1ccc(CN2CCC3=Cc4c(cnn4-c4ccc(F)cc4)CC3(Cc3ccc(F)cc3)C2)cn1 (centres unmarked) , respond with its Ki.
Ans: < 10 nM

Q: Given "CCNC(=O)[C@]12Cc3cnn(-c4ccc(F)cc4)c3C=C1CCN(S(=O)(=O)c1ccc(C(C)(C)C)cc1)C2" , respond with its Ki.
Ans: < 10 nM

Q: Given "CC(C)(C)c1ccc(S(=O)(=O)N2CCC3=Cc4c(cnn4-c4ccc(F)cc4)C[C@]3(C(=O)NCc3ccccc3)C2)cc1" , respond with its Ki.
Ans: 10 to 100 nM

Q: Given "CN(CCO)C[C@]12Cc3cnn(-c4ccc(F)cc4)c3C=C1CCN(S(=O)(=O)c1ccc(C(C)(C)C)cc1)C2" , respond with its Ki.
Ans: < 10 nM

Q: Given "COCCOC[C@]12Cc3cnn(-c4ccc(F)cc4)c3C=C1CCN(S(=O)(=O)c1ccccc1)C2" , respond with its Ki.
Ans: < 10 nM

Q: Given Fc1ccc(-n2ncc3c2C=C2CCN(Cc4ccccc4)CC2(Cc2ccccc2)C3)cc1 (centres unmarked) [drawing 242] , respond with its Ki.
Ans: 10 to 100 nM

Q: Given O=S(=O)(c1ccc(N2CCOCC2)cc1)N1CCC2=Cc3[nH]ncc3CC2(Cc2ccccc2)C1 (centres unmarked) [drawing 230] , respond with its Ki.
Ans: < 10 nM

Q: Given "CC(C)n1ncc2c1C=C1CCN(S(=O)(=O)c3ccc(C(C)(C)C)cc3)C[C@@]1(CN1CCCCC1)C2" , respond with its Ki.
Ans: < 10 nM

Q: Given "CC(C)(C)c1ccc(S(=O)(=O)N2CC[C@H]3Cc4c(cnn4-c4ccc(F)cc4)C[C@]3(CN3CCOCC3)C2)cc1" , respond with its Ki.
Ans: < 10 nM

Q: Given "CC(C)(C)c1ccc(S(=O)(=O)N2CCC3=Cc4c(cnn4CC(F)(F)F)C[C@]3(CN3CCCC3)C2)cc1" , respond with its Ki.
Ans: 10 to 100 nM

Q: Given "COc1ccc(S(=O)(=O)N2CCC3=Cc4c(cnn4-c4ccc(F)cc4)C[C@]3(CN3CCCCC3)C2)cc1" , respond with its Ki.
Ans: 10 to 100 nM

Q: Given "CC(C)(C)c1ccc(S(=O)(=O)N2CCC3=Cc4c(cnn4-c4ccc(F)cc4)C[C@]3(C(=O)N3CCCC3)C2)cc1" , respond with its Ki.
Ans: < 10 nM

Q: Given "CCN(CC)C[C@]12Cc3cnn(-c4ccc(F)cc4)c3C=C1CCN(S(=O)(=O)c1ccc(OC)cc1)C2" , respond with its Ki.
Ans: < 10 nM

Q: Given O=C(Nc1ccccc1)N1CCC2=Cc3c(cnn3-c3ccc(F)cc3)CC2(Cc2ccc(F)cc2)C1 (centres unmarked) , respond with its Ki.
Ans: < 10 nM

Q: Given "CC(C)(C)c1ccc(S(=O)(=O)N2CCC3=Cc4c(cnn4-c4ccc(F)cc4)C[C@]3(COCCN3CCOCC3)C2)cc1" , respond with its Ki.
Ans: 10 to 100 nM

Q: Given CC(C)(C)c1ccc(S(=O)(=O)N2CCC3=Cc4c(cnn4Cc4cccc(O)c4)CC3(Cc3ccccc3)C2)cc1 (centres unmarked) [drawing 241] , respond with its Ki.
Ans: > 100 nM

Q: Given "C[C@]12Cc3cnn(-c4ccc(F)cc4)c3C=C1CCN(S(=O)(=O)c1ccc(N)cc1)C2" , respond with its Ki.
Ans: 10 to 100 nM

Q: Given CN(C)C(=O)CN1CCC2=Cc3c(cnn3-c3ccc(F)cc3)CC2(Cc2ccccc2)C1 (centres unmarked) , respond with its Ki.
Ans: > 100 nM

Q: Given "CC(C)(C)c1ccc(S(=O)(=O)N2CCC3=Cc4c(cnn4-c4ccc(F)cc4)C[C@]3(COCCN3CCCCC3)C2)cc1" , respond with its Ki.
Ans: < 10 nM

Q: Given "CN(C)C[C@]12Cc3cnn(-c4ccc(F)cc4)c3C=C1CCN(S(=O)(=O)c1ccccc1)C2" , respond with its Ki.
Ans: < 10 nM

Q: Given "CCCCS(=O)(=O)N1CCC2=Cc3c(cnn3-c3ccc(F)cc3)C[C@]2(COCCOC)C1" , respond with its Ki.
Ans: < 10 nM

Q: Given CC(C)(C)c1ccc(S(=O)(=O)N2CCC3=Cc4c(cnn4Cc4cccc(O)c4)CC3(Cc3ccccc3)C2)cc1 (centres unmarked) [drawing 257] , respond with its Ki.
Ans: > 100 nM

Q: Given Cn1cc2c(n1)C=C1CCN(S(=O)(=O)c3ccc(C(C)(C)C)cc3)CC1(Cc1ccccc1)C2 (centres unmarked) [drawing 232] , respond with its Ki.
Ans: < 10 nM

Q: Given CN1CCN(S(=O)(=O)N2CCC3=Cc4c(cnn4-c4ccc(F)cc4)CC3(Cc3ccc(F)cc3)C2)CC1 (centres unmarked) , respond with its Ki.
Ans: 10 to 100 nM

Q: Given O=S(=O)(c1ccc(F)cc1)N1CCC2=Cc3c(cnn3-c3ccc(F)cc3)CC2(Cc2ccc(F)cc2)C1 (centres unmarked) , respond with its Ki.
Ans: < 10 nM

Q: Given Cn1cc2c(n1)C=C1CCN(S(=O)(=O)c3ccc(C(C)(C)C)cc3)CC1(Cc1ccccc1)C2 (centres unmarked) [drawing 248] , respond with its Ki.
Ans: < 10 nM

Q: Given "CC(C)(C)S(=O)(=O)N1CCC2=Cc3c(cnn3-c3ccc(F)cc3)C[C@]2(C)C1" , respond with its Ki.
Ans: > 100 nM

Q: Given "CCCCn1ncc2c1C=C1CCN(S(=O)(=O)c3ccc(C(C)(C)C)cc3)C[C@@]1(CN(C)C)C2" , respond with its Ki.
Ans: 10 to 100 nM

---

Field: pKi. Provide a value for each of the molecules that follow.
Target: glucocorticoid receptors (Homo sapiens, UniProt P04150)
Sequence (P04150 whole entry): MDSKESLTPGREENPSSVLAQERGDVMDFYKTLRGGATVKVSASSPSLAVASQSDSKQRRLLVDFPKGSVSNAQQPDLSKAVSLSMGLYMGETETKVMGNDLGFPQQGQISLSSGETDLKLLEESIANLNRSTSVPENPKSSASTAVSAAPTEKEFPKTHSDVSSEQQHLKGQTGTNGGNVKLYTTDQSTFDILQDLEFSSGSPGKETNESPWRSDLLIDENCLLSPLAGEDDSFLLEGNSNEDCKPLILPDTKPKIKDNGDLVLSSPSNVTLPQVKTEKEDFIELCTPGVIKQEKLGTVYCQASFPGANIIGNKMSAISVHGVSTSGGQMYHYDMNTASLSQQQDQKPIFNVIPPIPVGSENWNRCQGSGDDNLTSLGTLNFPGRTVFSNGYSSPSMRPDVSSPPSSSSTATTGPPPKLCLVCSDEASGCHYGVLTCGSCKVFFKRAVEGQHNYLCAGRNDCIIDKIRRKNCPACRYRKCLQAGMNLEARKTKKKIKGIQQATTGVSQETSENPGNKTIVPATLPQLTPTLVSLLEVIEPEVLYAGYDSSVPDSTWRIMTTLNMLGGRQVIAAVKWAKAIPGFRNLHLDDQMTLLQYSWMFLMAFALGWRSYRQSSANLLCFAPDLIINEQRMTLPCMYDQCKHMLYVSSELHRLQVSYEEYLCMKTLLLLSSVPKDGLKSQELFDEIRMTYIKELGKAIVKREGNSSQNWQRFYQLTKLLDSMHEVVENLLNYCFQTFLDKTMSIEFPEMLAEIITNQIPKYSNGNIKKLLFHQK
Assay: GR functional assay using SW1353/MMTV-5 cells (dexamethasone-induced luciferase)
Type: cell-based
Set-up: contains endogenous glucocorticoid receptors; endogenous in cells; host or cells: SW1353/MMTV-5 (human chondrosarcoma, stably carrying the pMAMneo-Luc reporter)
Conditions: read-out: GR Functional
pKi: −log10 of the molar value.

Q: Given "CC(C)(C)c1ccc(S(=O)(=O)N2CCC3=Cc4c(cnn4-c4ccc(F)cc4)C[C@]3(Cc3ccccc3)C2)cc1" , respond with its pKi.
Ans: > 8.00

Q: Given "COc1ccc(S(=O)(=O)N2CCC3=Cc4c(cnn4-c4ccc(F)cc4)C[C@]3(CN3CCCCC3)C2)cc1" , respond with its pKi.
Ans: 7.00 to 8.00

Q: Given "O=S(=O)(c1ccccc1F)N1CCC2=Cc3c(cnn3-c3ccc(F)cc3)C[C@]2(CN2CCOCC2)C1" , respond with its pKi.
Ans: 7.00 to 8.00

Q: Given "O=S(=O)(c1ccc(F)cc1)N1CCC2=Cc3c(cnn3-c3ccc(F)cc3)C[C@]2(CN2CCCC2)C1" , respond with its pKi.
Ans: > 8.00

Q: Given "CC(C)(C)S(=O)(=O)N1CCC2=Cc3c(cnn3-c3ccc(F)cc3)C[C@]2(C)C1" , respond with its pKi.
Ans: < 7.00

Q: Given "CC(C)(C)c1ccc(S(=O)(=O)N2CCC3=Cc4c(cnn4-c4ccc(F)cc4)C[C@]3(C(=O)N3CCOCC3)C2)cc1" , respond with its pKi.
Ans: < 7.00

Q: Given "COCCOC[C@]12Cc3cnn(C4CCCC4)c3C=C1CCN(S(=O)(=O)c1ccc(C)cc1)C2" , respond with its pKi.
Ans: 7.00 to 8.00

Q: Given "CC(C)(C)c1ccc(S(=O)(=O)N2CCC3=Cc4c(cnn4-c4ccc(F)cc4)C[C@]3(CCO)C2)cc1" , respond with its pKi.
Ans: 7.00 to 8.00

// data source = patent US8557839B2
